Consider the following compounds; for each one, report its log fold change Tl+ flux.
Tested on: F380Y/beta4
Protocol Text: modulators of BK channel variants, profiling panel, selectivity assay, cell-based, U2OS BacMam, thallium flux, beta subunits (AID 1259406);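 note: initial slope of Thallos dye fluorescence rise after thallium is added; log ratio against the mean of 0.3% DMSO vehicle wells on the same plate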
Experimental Conditions: at 30 µM
Numbers only.

Recorded results for 8 compounds are shown here.
Cc1cc(NS(=O)(=O)c2ccc(NC(=O)c3nccnc3C(=O)O)cc2)no1
-0.0573
NC(C=Cc1cc(C(F)(F)F)cc(C(F)(F)F)c1)=NOC(=O)c1c(F)cccc1F
-0.0864
CC1(C)CC(=O)C=C(NCCCCCCCCNC2=CC(=O)CC(C)(C)C2)C1
0.0246
NC(=NNC(=O)c1cccnc1)c1ccncc1
0.00925
CCOC(=O)c1c[nH]n2c(=O)c3c(nc12)CCC3
-0.00836
O=c1cnn([C@@H]2O[C@H](CO)[C@@H](O)[C@H]2O)c(=O)[nH]1
0.00308
CSC(NCc1cccnc1)=C(C#N)S(=O)(=O)c1ccc(Cl)cc1
0.000772
COc1cccc(C=NNC(=O)C2CCCN(C(=S)NNC3CC4C=CC3C4)CC2)c1O (stereo not given)
0.0197

Provide the reported log fold change Tl+ flux of each entry below, same order.
1. O=S(=O)(c1ccc(N2CCOCC2)nc1)N1CCN(c2c(Cl)cncc2Cl)CC1
2. CS(=O)(=O)C(C#N)=NNc1ccc(OC(F)(F)F)cc1

1: -0.00865; 2: 0.0278

// provenance: PubChem BioAssay
